// data source = paper PMC7819943

Target: OsSMF1 (Oryza sativa, UniProt Q6ZLB0 1-436)
Sequence: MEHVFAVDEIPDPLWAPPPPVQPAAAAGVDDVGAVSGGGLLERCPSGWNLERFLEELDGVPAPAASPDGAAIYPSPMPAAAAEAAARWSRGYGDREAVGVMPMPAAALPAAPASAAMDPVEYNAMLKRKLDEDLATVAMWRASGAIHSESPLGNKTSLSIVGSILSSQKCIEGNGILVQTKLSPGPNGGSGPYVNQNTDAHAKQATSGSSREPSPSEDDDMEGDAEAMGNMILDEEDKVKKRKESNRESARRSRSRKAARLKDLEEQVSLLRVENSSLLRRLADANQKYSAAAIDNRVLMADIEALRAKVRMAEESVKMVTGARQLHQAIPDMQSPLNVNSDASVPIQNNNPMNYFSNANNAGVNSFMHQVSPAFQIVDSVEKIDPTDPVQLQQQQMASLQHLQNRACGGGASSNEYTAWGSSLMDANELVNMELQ
Assay: protein-binding microarray (RPBM); PBS, 2% BSA, 51.3 ng/ul salmon testes DNA, 50 uM zinc acetate, 200 nM TF, 25 C, 1 h; high values mean tight binding
Conditions: protein: recombinant; tags: N-terminal polyhistidine and DsRed monomer fusion (pET32a); chain copies: 2; label: CyDye5-dUTP incorporated in the synthesized complementary strand; 3' TTTTT single-stranded linker to array surface; dsDNA, one strand shown
The full ranking holds about 39,000 sequences; the median of “fluorescence intensity (a.u.)” is about 4,300, and the highest 2% start at about 39,000. This is one part of a sample in which the highest values are shown more often than they occur.

PRIMARY_SEQUENCE	STUDY_SYSTEM	binding signal
GAAGCCATCCACGCGGCACCATCGGACGGCTCTCGCGCCCCGGAGTCACCTAGTGCAG	OsSMF1 (Oryza sativa, UniProt Q6ZLB0 1-436)	5210 fluorescence intensity (a.u.)
GGAACTTCTGTTTAGGCATTTGCACCTGAAATATGATCTGCGGAGTCACCTAGTGCAG	OsSMF1 (Oryza sativa, UniProt Q6ZLB0 1-436)	3190 fluorescence intensity (a.u.)
GTCCGTCGCGCGTCACCGCGTGCCTCGCCACGCCCACGCCCGGAGTCACCTAGTGCAG	OsSMF1 (Oryza sativa, UniProt Q6ZLB0 1-436)	5090 fluorescence intensity (a.u.)
ATGCACTTCCTGTCACGGTCCGGCCCATCCTAGCTGCCGGCGGAGTCACCTAGTGCAG	OsSMF1 (Oryza sativa, UniProt Q6ZLB0 1-436)	3290 fluorescence intensity (a.u.)
ATGTTGACTCGTTTGCCTGTGTTCCTCTTGCTGCTATTCACGGAGTCACCTAGTGCAG	OsSMF1 (Oryza sativa, UniProt Q6ZLB0 1-436)	3230 fluorescence intensity (a.u.)
CGTCGAACCGGCGGCGGCCCGCGCCACCCACCCTACCCGCCGGAGTCACCTAGTGCAG	OsSMF1 (Oryza sativa, UniProt Q6ZLB0 1-436)	49100 fluorescence intensity (a.u.)
TTTTAGTATATTTATATACTTTGTGCAAGGTGACATGTACCGGAGTCACCTAGTGCAG	OsSMF1 (Oryza sativa, UniProt Q6ZLB0 1-436)	3440 fluorescence intensity (a.u.)
TTAACAGTTGGTTACTAGTCCTAATTAATTCAGTAGCAATCGGAGTCACCTAGTGCAG	OsSMF1 (Oryza sativa, UniProt Q6ZLB0 1-436)	4700 fluorescence intensity (a.u.)
TCTACTGCAATTAGTTGATTCAGCTAGTAGCAAACATAATCGGAGTCACCTAGTGCAG	OsSMF1 (Oryza sativa, UniProt Q6ZLB0 1-436)	54800 fluorescence intensity (a.u.)

====

Each entry below lists one item and its recorded binding signal value.
Target: OsSMF1 (Oryza sativa, UniProt Q6ZLB0 1-436)
Sequence: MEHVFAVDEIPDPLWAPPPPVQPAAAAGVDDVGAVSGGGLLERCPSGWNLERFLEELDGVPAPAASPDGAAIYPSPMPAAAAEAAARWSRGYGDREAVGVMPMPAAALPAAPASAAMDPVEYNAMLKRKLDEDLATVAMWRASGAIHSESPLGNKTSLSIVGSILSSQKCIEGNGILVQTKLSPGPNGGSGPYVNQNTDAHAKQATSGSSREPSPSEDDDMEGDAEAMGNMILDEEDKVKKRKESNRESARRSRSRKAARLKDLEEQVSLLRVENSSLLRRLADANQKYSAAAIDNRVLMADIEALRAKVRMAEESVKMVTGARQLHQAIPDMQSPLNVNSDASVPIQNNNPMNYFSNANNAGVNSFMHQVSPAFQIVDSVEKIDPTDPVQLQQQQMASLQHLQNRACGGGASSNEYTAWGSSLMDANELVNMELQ
Experiment: protein-binding microarray (RPBM); PBS, 2% BSA, 51.3 ng/ul salmon testes DNA, 50 uM zinc acetate, 200 nM TF, 25 C, 1 h; high values mean tight binding
Details: protein: recombinant; tags: N-terminal polyhistidine and DsRed monomer fusion (pET32a); chain copies: 2; label: CyDye5-dUTP incorporated in the synthesized complementary strand; 3' TTTTT single-stranded linker to array surface; dsDNA, one strand shown
In all, about 39,000 sequences were measured (“fluorescence intensity (a.u.)”: median about 4,300, highest 2% from about 39,000 on). The list comes from a sample in which the highest values are over-represented; it also holds close analogues and randomly drawn sequences.

PRIMARY_SEQUENCE	binding signal
GCCGCCGCCGCCGGAGAAGATGATGGTGCCGCTGGATCCGCGGAGTCACCTAGTGCAG	43500 fluorescence intensity (a.u.)
ATGGTGGAGAAGGTGACGATGACACGAGGTGATCTGGATCCGGAGTCACCTAGTGCAG	3680 fluorescence intensity (a.u.)
TTGATGGCGATCTGCGAGGCCGTGCGGGTCACGGAGCGCGCGGAGTCACCTAGTGCAG	30900 fluorescence intensity (a.u.)
AGTGGAAGCAGGTCTTTTACTGATCGATCAAGGTCTGATGCGGAGTCACCTAGTGCAG	16800 fluorescence intensity (a.u.)
AGATGGCGGCGGCGGCGCAGATCCGGCCTCCACGCGCGCACGGAGTCACCTAGTGCAG	3940 fluorescence intensity (a.u.)
TCCACCGTCTGCTACTGCTAGCGTGCTACTGTCTCGCTGACGGAGTCACCTAGTGCAG	3350 fluorescence intensity (a.u.)
GAAGCTGTCATCGCTGATGCGGCGAAGAGATCATCATCACCGGAGTCACCTAGTGCAG	4450 fluorescence intensity (a.u.)
CTCATCTCAAGCTTTTCTCTCTCTCTCTCTCTTTGCACTACGGAGTCACCTAGTGCAG	4680 fluorescence intensity (a.u.)
CGGCGCAGATCCGGCGAGCGGCGGCGGCGGAAGCTGATGGCGGAGTCACCTAGTGCAG	39900 fluorescence intensity (a.u.)

====

Molecular target: OsSMF1 (Oryza sativa, UniProt Q6ZLB0 1-436)
Sequence: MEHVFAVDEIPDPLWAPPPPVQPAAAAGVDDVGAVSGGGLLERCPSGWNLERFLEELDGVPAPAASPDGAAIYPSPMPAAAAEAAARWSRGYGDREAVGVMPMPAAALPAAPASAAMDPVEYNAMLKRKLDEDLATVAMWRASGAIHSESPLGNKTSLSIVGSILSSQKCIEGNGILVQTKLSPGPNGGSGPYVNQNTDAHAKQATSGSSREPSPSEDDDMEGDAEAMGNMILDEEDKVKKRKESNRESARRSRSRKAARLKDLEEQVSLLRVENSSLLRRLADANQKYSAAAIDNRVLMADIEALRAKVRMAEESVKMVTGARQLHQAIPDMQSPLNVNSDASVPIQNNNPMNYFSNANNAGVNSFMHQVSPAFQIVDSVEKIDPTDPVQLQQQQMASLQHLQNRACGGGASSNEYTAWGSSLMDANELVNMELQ
Assay: protein-binding microarray (RPBM); PBS, 2% BSA, 51.3 ng/ul salmon testes DNA, 50 uM zinc acetate, 200 nM TF, 25 C, 1 h; high values mean tight binding
Conditions: protein: recombinant; tags: N-terminal polyhistidine and DsRed monomer fusion (pET32a); chain copies: 2; label: CyDye5-dUTP incorporated in the synthesized complementary strand; 3' TTTTT single-stranded linker to array surface; dsDNA, one strand shown
Whole data set: some 39,000 sequences, median “fluorescence intensity (a.u.)” near 4,300, cut for the highest 2% near 39,000. The entries come from a sample that favours the highest values as a whole.

PRIMARY_SEQUENCE	binding signal
GCAGCATAGTTAGCTTTATATCTGTTTTACGTCATCACCACGGAGTCACCTAGTGCAG	6330 fluorescence intensity (a.u.)
CTTTGTCTTAGTATGGTGACTGGTTGCAAATTGATTTGGTCGGAGTCACCTAGTGCAG	3410 fluorescence intensity (a.u.)
CCGTATACATAGCTAGCTGTCTGTGATGCATGCATGGTCACGGAGTCACCTAGTGCAG	44200 fluorescence intensity (a.u.)
GTAATTACAGCTCATGATTTTCTCTCTCTCTCTCTCTCTACGGAGTCACCTAGTGCAG	19500 fluorescence intensity (a.u.)
AGCGACGAGTAAACAAAGCGCGGCGTAGCATGTGATGTGGCGGAGTCACCTAGTGCAG	4440 fluorescence intensity (a.u.)
CAAACGGGACGAATTCCTAACCCTCGTCATCCGTCCCTTCCGGAGTCACCTAGTGCAG	4710 fluorescence intensity (a.u.)
CGAAATAAGTAATTTACAGGGCTTTCTCTCTCTCGCTCACCGGAGTCACCTAGTGCAG	64400 fluorescence intensity (a.u.)
AGAGAGAGCGTGGGTGGGGTGGGTGCTCTGGGTGACTGGGCGGAGTCACCTAGTGCAG	6040 fluorescence intensity (a.u.)
GCAGGCGTCGGTTTCGCGGCTGGCAGCGGCGGCTCGCTCACGGAGTCACCTAGTGCAG	3200 fluorescence intensity (a.u.)
CCGCGCCGTCCCTCCTGACGCGGCGTCTCGCCGCCGCCGCCGGAGTCACCTAGTGCAG	3780 fluorescence intensity (a.u.)
ATATGGCCTTCGGTGGTATCCACGTAGAGCTTTACGTTAACGGAGTCACCTAGTGCAG	4810 fluorescence intensity (a.u.)
TTGGGCGGCGGTGCGGGGAGGCTGAGGGGCGGCGCCGGCGCGGAGTCACCTAGTGCAG	3580 fluorescence intensity (a.u.)
CCTTTTCCGCTTTAAAACACCACACAGTGACACACACACCCGGAGTCACCTAGTGCAG	5500 fluorescence intensity (a.u.)
CCCGCGGATCGATCGATCGCCGCCGCGCGCCTGGACGAGCCGGAGTCACCTAGTGCAG	3300 fluorescence intensity (a.u.)
CGTGACGCGCAGCTCCCTGCAGCCGACCTGGCCACCCACACGGAGTCACCTAGTGCAG	3500 fluorescence intensity (a.u.)
CTCCATTTTCTCCGGTTTTCGCCGCAGAGTAGGAGCTGAACGGAGTCACCTAGTGCAG	21400 fluorescence intensity (a.u.)
CCACACACCATTGCCGCATCATCCACCACCGCCTCCTCAGCGGAGTCACCTAGTGCAG	5210 fluorescence intensity (a.u.)
CGCATCCCGGCCCATCCGCCTCGTCAGCGGCGGCGCACCACGGAGTCACCTAGTGCAG	10800 fluorescence intensity (a.u.)
GTGAGACTGGCGAGGCCCTTCTTGCGTGGCGCTGCAAGCTCGGAGTCACCTAGTGCAG	7600 fluorescence intensity (a.u.)
GATCAAACCAGCGGCAGATGAGGGCGCAAAGAGAAAGAGCCGGAGTCACCTAGTGCAG	4210 fluorescence intensity (a.u.)
CGCCGCCACAACCGCGCGCCGTCACCGCCGCGTGCCGTCACGGAGTCACCTAGTGCAG	5070 fluorescence intensity (a.u.)
ACCAATCGCATGACGATATTCCCGCTCCCACAATCGCGTTCGGAGTCACCTAGTGCAG	3550 fluorescence intensity (a.u.)
GACGGGCGGCGGTGGGGCTGACGCGGGCGACGGAGGGGCTCGGAGTCACCTAGTGCAG	6720 fluorescence intensity (a.u.)
GTACAGCAGGAATCGCTGCTGGCGTCGCTTCGTCGGTTGTCGGAGTCACCTAGTGCAG	65100 fluorescence intensity (a.u.)
GACGATCAAGATCGACACGACCAACGTGGCATGTTGCGTACGGAGTCACCTAGTGCAG	9470 fluorescence intensity (a.u.)
TCGTGGGAATGGCTGAGGATTAGGGCGCCACGTCATCGTTCGGAGTCACCTAGTGCAG	45600 fluorescence intensity (a.u.)
CTCACTGGTATGCTCACCACCACTTTAAGACTGTGTTTGTCGGAGTCACCTAGTGCAG	3730 fluorescence intensity (a.u.)
GGCGGAGACGCGGGCGTGGCTCGGCGGCCTGCTAGTGTGACGGAGTCACCTAGTGCAG	3340 fluorescence intensity (a.u.)
TTAAATGGTCATTCCTGTGTTTTACAATCATATATCTTACCGGAGTCACCTAGTGCAG	3990 fluorescence intensity (a.u.)
CACGCGCCGGTGCCTTGCGCCGTCACCGTGCCAGCCCAGCCGGAGTCACCTAGTGCAG	5670 fluorescence intensity (a.u.)
AAAGTCATGTCATCACGTATATATCACGTATACATATATACGGAGTCACCTAGTGCAG	4080 fluorescence intensity (a.u.)
ACTTACACAGTAATTACACCTCACTTACACCCGCTTACACCGGAGTCACCTAGTGCAG	5410 fluorescence intensity (a.u.)
ACGGCATCGATCGATCGCGGGCGACGTGGCTGAGTGGCGGCGGAGTCACCTAGTGCAG	6420 fluorescence intensity (a.u.)
GCGTCACGTTCCTGTCGGCGGCGGCCAACGTGGCCCGCGTCGGAGTCACCTAGTGCAG	15200 fluorescence intensity (a.u.)
GGATCCGGGCATCTGGCTGCCCCGCCGCCACTCCGCCTAGCGGAGTCACCTAGTGCAG	3330 fluorescence intensity (a.u.)
ATATACATATACATATATATACACACACACGTATACATAGCGGAGTCACCTAGTGCAG	4840 fluorescence intensity (a.u.)
GGCGTTCTGCCGCCTGGCGCCGCTCGTCACGTACGAGGACCGGAGTCACCTAGTGCAG	3350 fluorescence intensity (a.u.)
